Dear all, this message contains Ki results, target or system CDC7 (human) (UniProt O00311).
API: value field is a number in nM; no unit string.

Fill in the blank: the reported Ki of `O=[N+]([O-])c1ccc(-n2nc(-c3ccncc3)cc2O)cc1` is ____.
501

Look up Ki: `CN(C)c1ccc(-c2c(-c3ccc4[nH]nc(N)c4c3)nnn2Cc2ccccc2)cc1`
0.398

----------
Would you mind telling me the reported pKi of each entry?
Interpret pKi as the negative base-10 log of the concentration measured in mol/L.

Can you look up pKi on SGK1 (human) (UniProt O00141) for `OCC(CO)Nc1ncnc2[nH]cc(-c3ccccc3)c12` ?
5.10

Form field: pKi recorded for `CS(=O)(=O)NCCOc1cncc(-c2ccc3cnccc3c2)c1` with SGK1 (human) (UniProt O00141) (enter value)
5.40

----------
# assay.system: HIPK2 (human)
readout.kind: pKi
Quick note: pKi values are minus log10 of concentrations in mol/L.

// query pKi value for entry `O=C1c2ccccc2-c2n[nH]c3cccc1c23`
6.70

----------
# assay.system: SGK1 (human) (UniProt O00141)
# Sequence (O00141 whole entry, looked up): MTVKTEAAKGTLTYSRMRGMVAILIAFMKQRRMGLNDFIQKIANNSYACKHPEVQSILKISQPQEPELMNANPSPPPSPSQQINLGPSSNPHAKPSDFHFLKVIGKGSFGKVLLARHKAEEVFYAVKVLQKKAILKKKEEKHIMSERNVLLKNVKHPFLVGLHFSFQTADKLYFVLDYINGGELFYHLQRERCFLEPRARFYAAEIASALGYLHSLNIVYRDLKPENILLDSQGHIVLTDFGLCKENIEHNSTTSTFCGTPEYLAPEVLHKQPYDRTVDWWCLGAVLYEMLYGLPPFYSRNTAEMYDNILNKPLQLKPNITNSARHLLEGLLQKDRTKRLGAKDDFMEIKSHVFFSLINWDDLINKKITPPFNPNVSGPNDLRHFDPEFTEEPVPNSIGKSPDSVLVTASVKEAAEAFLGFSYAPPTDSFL
# test.name: Flashplate
pKi: −log10 of the molar value.
readout.kind: pKi

Bench note: what pKi did `CC(C)S(=O)(=O)n1c(N)nc2ccc(-c3c(-c4ccc(F)cc4)nc4sccn34)cc21` show?
< 5.00

Which pKi value belongs to `CNc1ncnc2c1N=C(c1ccc(NC(=O)Nc3cccc(C(F)(F)F)c3)cc1)CCN2` ?
< 5.00

Param item = `COc1cc2c(Oc3ccc4[nH]c(C)cc4c3F)ncnc2cc1OCCCN1CCCC1` ; retrieve measured pKi.
< 5.00

Item `O=c1[nH]c2sc3c(c2c2nc(-c4ccccc4)nn12)CCCC3` has what recorded pKi?
< 5.00

Please give the measured pKi for this compound: `O=C(NCc1ccc(Cl)cc1)Nc1cccc2[nH]ncc12`
< 5.00

Which measured pKi value corresponds to `CC(C)NC(=O)COc1cccc(-c2nc(Nc3ccc4[nH]ncc4c3)c3ccccc3n2)c1` ?
< 5.00

Can you look up the measured pKi of `COc1cc(CN2CCCCC2)c(Cl)cc1NC(=O)Nc1cnc(C#N)cn1` for me?
< 5.00

I have this compound here, `O=C1NCCc2[nH]c(-c3ccnc(/C=C/c4ccccc4)c3)cc21` , and I need its recorded pKi.
6.00

Which pKi value is on record for `O=C1Nc2ccccc2Nc2nnc(I)cc21` ?
5.40

# query: pKi of entry `Fc1ccc(-c2nc(-c3ccc(F)cc3)c(-c3ccncc3)[nH]2)cc1`
< 5.00

----------
# assay.system: SGK1 (human)
# test.name: Flashplate
Answer each item with its documented Ki.
A number alone suffices; assume nM.

// lookup Ki for `OCCNc1cc2cc(-c3ccsc3)ccc2cn1`
501

Can you look up the measured Ki of `COc1cccc(CNC(=O)c2cc3c(-c4ccccc4)n[nH]c3s2)c1` for me?
794

----------
pKi: −log10 of the molar value.
readout.kind: pKi

Observed pKi on PRKX (human) (UniProt P51817) for `O=C1c2ccccc2-c2n[nH]c3cccc1c23` , please.
Sequence (P51817 whole entry, looked up): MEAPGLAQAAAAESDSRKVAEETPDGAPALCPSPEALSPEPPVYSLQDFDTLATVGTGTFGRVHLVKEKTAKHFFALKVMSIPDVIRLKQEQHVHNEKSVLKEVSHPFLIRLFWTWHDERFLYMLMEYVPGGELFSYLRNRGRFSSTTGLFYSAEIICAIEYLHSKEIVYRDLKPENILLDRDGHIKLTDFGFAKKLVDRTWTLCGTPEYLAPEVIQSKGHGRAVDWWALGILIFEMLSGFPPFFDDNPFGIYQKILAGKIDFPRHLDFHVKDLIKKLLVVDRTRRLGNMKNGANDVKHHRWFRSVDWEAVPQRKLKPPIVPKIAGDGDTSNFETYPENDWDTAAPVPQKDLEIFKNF
< 5.80

----------
# assay.system: MAPKAPK3 (human)
pKi: −log10 of the molar value.
readout.kind: pKi

// returns reported pKi for input `O=C1c2ccccc2-c2n[nH]c3cccc1c23`
< 5.00
